biological target: Focal adhesion kinase 1 (Homo sapiens); test: PTK2 protein binding on printed compound slides – biochemical, small-molecule microarray, 635/667 nm fluorescence, BSA, DTT, primary screen (AID 1130); settings: 635 nm fluorescence, higher = more signal;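 note: composite of spot emission at 667 nm and signal to noise over triplicate slides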
Answer criterion not met if composite z-score is under 0.6, and criterion met if it is 0.6 or more.

{"columns": ["Compound", "Assigned class"],
 "data": [
  ["COc1ccc([Si](C)(C)[C@@H]2[C@@H](CCO)O[C@]3(C(=O)N(Cc4ccccc4)c4ccc(N5C(=O)c6cccc7cccc5c67)cc43)[C@H]2C)cc1", "criterion not met"],
  ["COCCOC(=O)N1C(=O)[C@@]2(c3cc(C#CCCO)ccc31)[C@H](c1ccc(OCCO)cc1)N1[C@H](c3ccccc3)[C@H](c3ccccc3)OC(=O)[C@H]1[C@@H]2C(=O)Nc1nc2ccccc2s1", "criterion not met"],
  ["COCCOC(=O)N1C(=O)[C@@]2(c3cc(C#CC4=CCCCC4)ccc31)[C@H](c1ccccc1OCCO)N1[C@H](c3ccccc3)[C@H](c3ccccc3)OC(=O)[C@H]1[C@@H]2C(=O)NC[C@H](O)c1ccccc1", "criterion not met"],
  ["NC(=O)[C@@]1(Cc2ccccc2)COC(c2ccc(OCCCO)cc2)=N1", "criterion not met"],
  ["O=C1O[C@@H](c2ccccc2)[C@@H](c2ccccc2)N2[C@@H](c3ccc(OCCO)cc3)[C@]3(C(=O)Nc4ccc(C#CC5=CCCCC5)cc43)[C@@H](C(=O)NC[C@H](O)c3ccccc3)[C@H]12", "criterion not met"],
  ["C=CC[C@@]1(C(=O)NCCCOC)N=C(c2ccc(OCCCO)cc2)O[C@@H]1c1ccccc1N=[N+]=[N-]", "criterion not met"],
  ["COc1ccc(CCNC(=O)[C@@H]2c3ccccc3C(=O)N(C3CCCCC3)[C@H]2c2ccc(CO)cc2)cc1", "criterion met"],
  ["C#CCN([C@@H](Cc1ccccc1)C(=O)OC)[C@@H](/C=C/C1CC1)[C@H](O)Cc1ccccc1", "criterion not met"],
  ["CC(CO)N1C(=O)[C@@H]2[C@H]3C(=O)OCC=C[C@H]3OC23C=CCN(Cn2nnc4ccccc42)C(=O)[C@@H]13 (stereo partly drawn)", "criterion not met"],
  ["C=CC[C@@H](OC(=O)Nc1ccc(OC)cc1)c1ccc(O)c(F)c1", "criterion met"],
  ["C[N+](C)(C)CCCC[C@@H]1NC(=O)[C@@H]2C[C@H](C(=O)NCCCCCCN)[C@H](c3cccc(OCCO)c3)N2C1=O", "criterion met"],
  ["CCOC(=O)C[C@H]1[C@H](OC(=O)c2ccc(-c3ccccc3)cc2)[C@@H](NC(=O)CC(C)C)c2cc(OCCCO)ccc2N1C(=O)c1ccc2ccccc2n1", "criterion not met"],
  ["Oc1ccc2cc[n+](Cc3cc4c(cc3Br)OCO4)cc2c1", "criterion not met"],
  ["C[N+](C)(C)CCCCCCNC(=O)[C@@H]1C[C@@H]2C(=O)N3CCC[C@H]3C(=O)N2[C@@H]1c1ccc(O)cc1", "criterion not met"],
  ["[N-]=[N+]=NCc1ccccc1[C@@H]1OC(c2ccc(OCCCO)cc2)=N[C@]1(CCS(=O)(=O)c1ccccc1)C(=O)O", "criterion met"],
  ["COCCOC(=O)N1C(=O)[C@@]2(c3cc(C#CCC(C(=O)OC)C(=O)OC)ccc31)[C@H](c1ccc(OCCO)cc1)N1[C@H](c3ccccc3)[C@H](c3ccccc3)OC(=O)[C@H]1[C@@H]2C(=O)N1CCc2cc(OC)c(OC)cc2C1", "criterion met"],
  ["CN(C)CCCCCCNC(=O)[C@@H]1C[C@@H]2C(=O)N3CCC[C@H]3C(=O)N2[C@@H]1c1cccc(OCCO)c1", "criterion not met"],
  ["CCOC(=O)C[C@H]1[C@H](OC(=O)Cc2ccc3c(c2)OCO3)[C@@H](NC(=O)c2ccc3ccccc3n2)c2cc(OCCCO)ccc2N1C(=O)c1ccc2ccccc2n1", "criterion met"],
  ["COc1ccc([Si](C)(C)[C@@H]2[C@@H](CCO)O[C@]3(C(=O)N(Cc4ccccc4)c4ccc(NC(=O)[C@H](C)O)cc43)[C@H]2C)cc1", "criterion met"],
  ["CC(C)C[C@@H]1NC(=O)[C@@H]2C[C@H](C(=O)NCCCCCCN)[C@H](c3cccc(OCCO)c3)N2C1=O", "criterion not met"],
  ["C=CC[C@@]1(C(=O)NCCCOC)N=C(c2ccc(OCCCO)cc2)O[C@@H]1c1ccccc1", "criterion not met"],
  ["CC(C)(C)OC(=O)COc1cccc(C(=O)CCN2CCOCC2)c1", "criterion not met"],
  ["[N-]=[N+]=Nc1ccccc1[C@@H]1OC(c2ccc(OCCCO)cc2)=N[C@]1(Cc1ccccc1)C(=O)N1CCCCC1", "criterion not met"],
  ["[N-]=[N+]=Nc1ccccc1[C@H]1OC(c2ccc(OCCCO)cc2)=N[C@@]1(Cc1ccccc1)C(=O)NCCN1CCOCC1", "criterion not met"],
  ["COc1cc2c(cc1O)C=[N+](Cc1sc3ccccc3c1Cl)CC2", "criterion not met"],
  ["CCCCCN1CC=CC23O[C@@H]4/C=C\\CCC(C)OC(=O)C4[C@H]2C(=O)N(C(CO)C(C)C)[C@@H]3C1=O (stereo partly drawn)", "criterion met"],
  ["O=C1O[C@@H](c2ccccc2)[C@@H](c2ccccc2)N2[C@@H](c3ccc(O)cc3)[C@]3(C(=O)Nc4ccc(C#CCCO)cc43)[C@@H](C(=O)N3CCN(c4ncccn4)CC3)[C@H]12", "criterion not met"]
]}

###

experiment: compound effects on lung adenocarcinoma cell viability – A549, calcein-AM fluorescence, 48 h, basal, profiling panel (AID 1162); conditions: higher = more signal; note: test concentration not given here
Answer criterion not met if z-score is under -0.7, and criterion met if it is -0.7 or more.

{"columns": ["Molecule", "Assigned class"],
 "data": [
  ["CCCC=C(CCC)[C@@H](NS(=O)(=O)CC12CCC(CC1=O)C2(C)C)c1ccc(C(=O)OC)cc1 (some centres not stated)", "criterion met"],
  ["CCOC(=O)C[C@H]1[C@H](OC(=O)c2ccc(C(=O)c3ccccc3)cc2)[C@@H](NC(=O)c2ccc3ccccc3n2)c2cc(OCCCO)ccc2N1C(=O)Cc1ccc(OC)cc1", "criterion met"],
  ["COc1ccc(C#Cc2ccc3c(c2)[C@]2(C(=O)N3)[C@H](c3ccc(O)cc3)N3[C@H](c4ccccc4)[C@H](c4ccccc4)OC(=O)[C@H]3[C@@H]2C(=O)Nc2nc3ccccc3s2)cc1", "criterion met"],
  ["[N-]=[N+]=Nc1ccccc1C[C@]1(C(=O)N2CCOCC2)COC(c2ccc(OCCCO)cc2)=N1", "criterion met"],
  ["CCCN1C(=O)[C@]2(Cc3ccccc31)N=C(c1ccc(OCCCO)cc1)O[C@@H]2c1ccccc1", "criterion not met"],
  ["O=C(C1N=C(c2ccc(OCCCO)cc2)N(c2ccccc2)O1)N1CCCCC1 (configuration not stated)", "criterion met"],
  ["[N-]=[N+]=Nc1ccccc1C[C@@]1(C(N)=O)N=C(c2ccc(OCCCO)cc2)O[C@@H]1c1ccccc1N=[N+]=[N-]", "criterion not met"]
]}

###

target: NADPH oxidase 5 (Homo sapiens) (UniProt Q96PH1); experiment: compounds shifting NOX5 Amplex Red fluorescence – cell-based, HEK293-NOX5, NOX inhibitor project, primary screen (AID 1161); settings: HEK293-NOX5, ionomycin, 45 min, higher = more signal
Sequence (Q96PH1 whole entry, looked up): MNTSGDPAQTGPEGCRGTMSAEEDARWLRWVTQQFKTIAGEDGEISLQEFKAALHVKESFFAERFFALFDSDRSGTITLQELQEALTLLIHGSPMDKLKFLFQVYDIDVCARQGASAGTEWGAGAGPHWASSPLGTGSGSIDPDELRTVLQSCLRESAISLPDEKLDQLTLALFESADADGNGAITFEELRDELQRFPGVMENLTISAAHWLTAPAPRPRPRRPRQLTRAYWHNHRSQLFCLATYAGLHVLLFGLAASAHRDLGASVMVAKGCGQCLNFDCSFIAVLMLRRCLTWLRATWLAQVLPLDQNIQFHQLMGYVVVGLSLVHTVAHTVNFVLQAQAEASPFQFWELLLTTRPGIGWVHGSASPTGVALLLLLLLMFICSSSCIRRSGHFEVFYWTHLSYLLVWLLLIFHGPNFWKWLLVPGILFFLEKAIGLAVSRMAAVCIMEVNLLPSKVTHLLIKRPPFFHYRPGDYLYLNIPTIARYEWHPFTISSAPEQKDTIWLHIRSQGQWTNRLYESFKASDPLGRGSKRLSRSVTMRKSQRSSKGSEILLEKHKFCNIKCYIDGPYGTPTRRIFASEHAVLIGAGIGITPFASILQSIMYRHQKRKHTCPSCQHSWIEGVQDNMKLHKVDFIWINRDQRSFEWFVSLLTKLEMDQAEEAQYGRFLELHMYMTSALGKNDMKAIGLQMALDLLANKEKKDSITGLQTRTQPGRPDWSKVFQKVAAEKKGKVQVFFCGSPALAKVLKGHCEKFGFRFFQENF

{"columns": ["Molecule", "Study system", "z-score"],
 "data": [
  ["COC(=O)[C@@]1(Cc2ccc(F)cc2)[C@H]2c3cc(C(=O)N4CCCC4)n(CCc4c[nH]c5ccccc45)c3C[C@H]2CN1C(=O)c1ccccc1", "NADPH oxidase 5 (Homo sapiens) (UniProt Q96PH1)", 1.9],
  ["C=CCN1Cc2ccccc2[C@@H]2OC(c3ccc(OCCCO)cc3)=N[C@]2(CC=C)C1=O", "NADPH oxidase 5 (Homo sapiens) (UniProt Q96PH1)", 1.03],
  ["C=C(COC)/C(=C/C[C@H](OC(=O)c1ccncc1)c1ccc(CO)o1)c1cnc2ccccc2c1", "NADPH oxidase 5 (Homo sapiens) (UniProt Q96PH1)", -0.377],
  ["CCCCC(CC)C(O)C1C=CC2C(=O)N(c3ccccc3)C(=O)C2N1Nc1ccccc1F (centres undefined)", "NADPH oxidase 5 (Homo sapiens) (UniProt Q96PH1)", 1.01]
]}

###

Reported composite z-score is given for each of the following compounds.
biological target: Streptavidin (Streptomyces avidinii) (UniProt P22629); experiment: compounds binding control protein streptavidin – biophysical, small-molecule microarray, 635/667 nm fluorescence, artefact control for SMM compound annotation, primary screen (AID 1147); settings: higher = more signal;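 note: signal reflects streptavidin binding to arrayed compounds as a control protein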
Sequence (P22629 whole entry, looked up): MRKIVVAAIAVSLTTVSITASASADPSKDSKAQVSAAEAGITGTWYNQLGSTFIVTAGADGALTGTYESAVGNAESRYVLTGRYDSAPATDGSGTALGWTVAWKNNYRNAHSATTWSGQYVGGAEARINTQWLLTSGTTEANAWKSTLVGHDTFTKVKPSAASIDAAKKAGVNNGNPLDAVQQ

{"columns": ["Compound", "composite z-score"],
 "data": [
  ["COc1cc(NN2C(C(O)c3cc(OC)c(OC)c(OC)c3)C=CC3C(=O)N(C)C(=O)C32)cc(OC)c1OC (stereo not drawn)", 0.853],
  ["CC(C)=C1C(=O)C(c2ccccc2)=C2CN3C(=O)N(CCc4ccccc4)C(=O)[C@]3(Cc3ccc(C(F)(F)F)cc3)[C@H]21", 0.37],
  ["CCCCC(CC)C(O)C1C=CC2C(=O)N(c3ccccc3)C(=O)C2N1Nc1ccccc1F (stereo not drawn)", 0.0844],
  ["C=CCNC(=O)[C@H]1[C@@H]2C(=O)O[C@@H](c3ccccc3)[C@@H](c3ccccc3)N2[C@@H](c2ccccc2OCCO)[C@]12C(=O)N(C(=O)OCCOC)c1ccc(C#CC3(O)CCCCCC3)cc12", -0.139],
  ["O[C@@H](Cc1ccccc1)[C@@H](/C=C/C1CC1)N(CC#Cc1ccccc1)Cc1ccccc1Br", -0.5],
  ["COC(=O)C/C=C/C[C@]1(O)C(=O)N(C)c2ccccc21", -0.373],
  ["COCCCNC(=O)[C@@H]1c2ccccc2C(=O)N(C(C)C)[C@H]1c1ccc(CO)cc1", -0.337],
  ["CC1=C2[C@@H](CCc3ccccc3)OB(O)C[C@@H]2[C@@H]2C(=O)N(Cc3ccccc3)C(=O)[C@@H]2C1", -0.189]
]}
